- EXPERIMENTAL_TARGET: HCV NS5B RdRp genotype 1b (Hepatitis C virus genotype 1b)
- Construct: The protein was expressed with an 18 amino acid C-terminal truncation to enhance the solubility
- ASSAY_METHOD_TEXT: HCV NS5B RdRp enzyme assay (preincubation protocol)
Overview of recorded IC50 for various compounds

- COMPOUND: "COC(=O)c1ccc2c(C3CCCCC3)c(-c3ccccc3)n3c2c1CCC3"
  IC50: "> 10000 nM"
- COMPOUND: "O=C(O)c1ccc2c(C3CCCCC3)c(-c3ccccc3)n3c2c1OCC3"
  IC50: "30 to 1000 nM"
- COMPOUND: "O=C(O)c1ccc2c(C3CCCCC3)c(-c3ccccc3)n3c2c1CCC3C(=O)O (centres unmarked)"
  IC50: "> 1000 nM"
- COMPOUND: "O=C(NS(=O)(=O)C1CC1)c1ccc2c(C3CCCCC3)c(-c3ccccc3)n3c2c1CCC3C(=O)N1CCOCC1 (centres unmarked)"
  IC50: "1000 to 10000 nM"
- COMPOUND: "COC(=O)c1ccc2c(C3CCCCC3)c(-c3ccccc3)n3c2c1CCC3C(=O)N1CCOCC1 (centres unmarked)"
  IC50: "> 1000 nM"
- COMPOUND: "COC(=O)c1ccc2c(C3CCCCC3)c(-c3ccccc3)n3c2c1CCC3C(=O)O (centres unmarked)"
  IC50: "> 1000 nM"
- COMPOUND: "O=C(O)/C=C/c1ccc(NC(=O)C2(NC(=O)c3ccc4c(C5CCCCC5)c(-c5ccccc5)n5c4c3CCC5C(=O)N3CCOCC3)CCCC2)cc1 (centres unmarked)"
  IC50: "30 to 1000 nM"
- COMPOUND: "O=C(O)/C=C\\c1ccc(NC(=O)C2(NC(=O)c3ccc4c(C5CCCCC5)c(-c5ccccc5)n5c4c3OCC5)CCCC2)cc1"
  IC50: "30 to 1000 nM"
- COMPOUND: "COc1ccc(-c2c(C3CCCCC3)c3ccc(C(=O)NC4(C(=O)Nc5ccc(C=CC(=O)O)cc5)CCCC4)c4c3n2CCO4)cc1"
  IC50: "30 to 1000 nM"
- COMPOUND: "COC(=O)c1ccc2c(C3CCCCC3)c(-c3ccccc3)n3c2c1CCC3C(=O)OC (centres unmarked)"
  IC50: "> 10000 nM"
- COMPOUND: "COC(=O)c1ccc2c(C3CCCCC3)c(-c3ccccc3)n3c2c1OC(C(=O)OC)C3 (centres unmarked)"
  IC50: "> 1000 nM"

====

Overview of recorded IC50 for various molecules
- EXPERIMENTAL_TARGET: HCV NS5B RdRp genotype 1b (Hepatitis C virus genotype 1b, UniProt Q9WMX2)
- Construct: The protein was expressed with an 18 amino acid C-terminal truncation to enhance the solubility; made in house; host or cells: E. coli BL21 (DE3)
- Sequence (Q9WMX2 2420-2992): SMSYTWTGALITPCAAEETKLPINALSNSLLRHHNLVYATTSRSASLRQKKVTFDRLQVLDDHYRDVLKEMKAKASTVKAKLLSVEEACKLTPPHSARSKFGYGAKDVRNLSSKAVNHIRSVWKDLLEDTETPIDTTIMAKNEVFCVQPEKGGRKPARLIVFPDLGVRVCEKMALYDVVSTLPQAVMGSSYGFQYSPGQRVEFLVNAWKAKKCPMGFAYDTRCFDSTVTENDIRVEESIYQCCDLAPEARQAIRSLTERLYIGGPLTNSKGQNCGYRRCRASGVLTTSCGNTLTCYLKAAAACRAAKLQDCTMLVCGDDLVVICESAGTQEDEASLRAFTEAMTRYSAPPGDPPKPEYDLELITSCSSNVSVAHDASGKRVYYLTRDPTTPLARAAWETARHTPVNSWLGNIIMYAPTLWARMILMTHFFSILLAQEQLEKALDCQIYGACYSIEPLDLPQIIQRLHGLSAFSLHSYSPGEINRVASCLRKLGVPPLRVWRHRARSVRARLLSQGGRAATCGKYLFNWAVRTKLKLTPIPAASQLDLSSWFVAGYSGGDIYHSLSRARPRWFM
- ASSAY_METHOD_TEXT: HCV NS5B RdRp enzyme assay (preincubation protocol)
- Type: biochemical
- Experimental: HCV NS5B RdRp cloning, expression, and purification. The cDNA encoding the NS5B protein of HCV, genotype 1b, was cloned into the pET21a expression vector. The protein was expressed with an 18 amino acid C-terminal truncation to enhance the solubility. […] Standard HCV NS5B RdRp enzyme assay. […] Plates were read on a Packard Top Count NXT after >1 hr incubation at room temperature. […] IC50 values for compounds were determined using seven different [I]. […]
MEASURED_PROPERTY: IC50

- MOLECULE: "O=C(O)c1ccc2c(C3CCCCC3)c(-c3ccccc3)n3c2c1CCCC3"
  EXPERIMENTAL_TARGET: "HCV NS5B RdRp genotype 1b (Hepatitis C virus genotype 1b, UniProt Q9WMX2)"
  OBS_VALUE: "> 1 µM"
- MOLECULE: "COc1ccc(-c2c(C3CCCCC3)c3ccc(C(=O)O)c4c3n2CCO4)cc1"
  EXPERIMENTAL_TARGET: "HCV NS5B RdRp genotype 1b (Hepatitis C virus genotype 1b, UniProt Q9WMX2)"
  OBS_VALUE: "0.03 to 1 µM"
- MOLECULE: "CCOC(=O)/C=C/c1ccc(NC(=O)C2(NC(=O)c3ccc4c(C5CCCCC5)c(-c5ccccc5)n5c4c3CCC5C(=O)N3CCOCC3)CCCC2)cc1 (centres unmarked)"
  EXPERIMENTAL_TARGET: "HCV NS5B RdRp genotype 1b (Hepatitis C virus genotype 1b, UniProt Q9WMX2)"
  OBS_VALUE: "1 to 10 µM"
- MOLECULE: "CN(C)S(=O)(=O)NC(=O)c1ccc2c(C3CCCCC3)c(-c3ccccc3)n3c2c1CCC3C(=O)N1CCOCC1 (centres unmarked)"
  EXPERIMENTAL_TARGET: "HCV NS5B RdRp genotype 1b (Hepatitis C virus genotype 1b, UniProt Q9WMX2)"
  OBS_VALUE: "1 to 10 µM"
- MOLECULE: "O=C(O)c1ccc2c(C3CCCCC3)c(-c3ccccc3)n3c2c1CCC3C(=O)N1CCOCC1 (centres unmarked)"
  EXPERIMENTAL_TARGET: "HCV NS5B RdRp genotype 1b (Hepatitis C virus genotype 1b, UniProt Q9WMX2)"
  OBS_VALUE: "0.03 to 1 µM"

Source listed as patent US7998951B2.
